# assay.procedure: soluble on expression in E. coli; label from the status in PepcDB or PDB records
assay.metric: soluble on expression in E. coli

residue.codes	soluble on expression in E. coli
MPRIAIPDDLTEILTVVEFPLPNAPEIKIEIERLLQATGNSLSGKVTDDLVRSCQGLSMERIRRVLAKAIATHGELQPEDVDLVLEEKRQTIRQTQILDFYPATEQISDIGGLDNLKDWLLRRGGSFSERARQYGLPHPRGLLLEHHHHHH	not soluble
MYLRKILELYRDSRFKYVVVDTPPTGLTLRILSLPRLYTFWLESLIGIRERIVSLRYVIARSIGREPEMDDPVLDKLREMQDRYAKLSNDLVERERTSFAIVATPEPLPVYEARKTVEFLESMGAKPSIIVVNRILPAEIASRLGVLEVQSKALNELRTRVCRKPCVLVEIPMVETVPSSLEAVLNLVERSR	not soluble
MGSDKIHHHHHHMRLGFYNIQGGTGKTTIAANIGYYLSDKTKTVYVDCDIYAGCGALLFGFEDSPHTLNSYLSGASALTDIIHQFDDLSVIVADSTPNSFNTEINQKRMLELIRVLNDNYDIVLLDLPPNITEGNLLFSSLNLEEKVVNKMIVVAEDSIPGIANTMKTKELLYAIDIDCIGVIVNKFKDTVDFDEALDDIIAILPYDKKVENQWMENVPAVQMKSKFSKELSYLAEDLAEVYIKKDLAAVRALKVAKELKDMTSKRQDVEEDEF	not soluble
EAQIYGYVEKATLIDQNLTLSAKLDTGAKSASLHAVNITEIEKKGIPYLRFTVPTKTGDYSFEGEYVGKVKIKVRSSETNPGLLRTTPIKRPVVLLNIKLGDKVRTIKVNLTNRKRFLYPLLLGRDAIIDFNGAVDPALTFTTKSK	not soluble
MSLGNPHMPLLLALSKGFVEPVYRAAFLASAASSGVLAALAVRPCDLESLAERLDIDDEDLPRLKEWLDMGIRLGDLGKREGCYKLRSLPAKALAQPGNDAIAAALEEVLRFHVPALLNGPRMLREGRRFSLDDQDGLVIARSTRVIQPLVEEAIARTLDRNAPVRLLEVGCGSGTYVRYAAELNPRLSALAVDLQQDVADSAAANMAEWGLTDRVETRQADLRTLDAQPQFDLVTLHNNIYYFPEAERVEALRRAHDLLAPGGRLLLTTSCKGGNVGLEALNLWFTYADFGGPLPQADALADQLRQAGFDDVEATRIVPGEQFHAFTGTSKRVAHAEGHHHHHH	not soluble
MEMAYDFAETKDTAIIFIYRPPVGDIQISPVLEGPRRLRLWNDITISLYKDVYPDIRLIESRSRVEVHLRKVEMVRWGGINGRPADKPQDDGKETMVEDSGDEENPSVMDLFSKIYQRSGDDVRRAMEKSFYESEGTVLSTDWDQVKSKKITRED	not soluble
MGSDKIHHHHHHMKQSEQEEPLTGGNVSDVSRIGETVRREQKPESLRVHRVLQHLEQKGFEGSPRYLGIDPQGREILSFIEGEAGNYPLQPYMQSDRVLEETARLLRSYHEAVADFPIPTDWQPLDGTPEPLELICHNDFAVYNVIFQNERPVGIIDFEVAAPGPRIWDIAYTMYTFVPLSRHQMTEDGEPAHYNPVNDQERIRRRVLLFLSAYGKAELKDEMYETVLLRVEALIKTIHRRAAEGDDAFQRMIDDGHVTHYEQEIDFLKREGADWFR	not soluble
MSSKEIICQGEELFRLIPQRPPMVMIDRFYGIEENTSWSGLTVTTDNLFCRDGVLQETGIIEHIAQSAAARVGYIYMLRKEPVPLGFIGSVEKMKLFRLPSAGAELYTGITIVQEVFDITLITAEVKENDELLAECRMKIYLKKELEHHHHHH	soluble

Query: soluble on expression in E. coli; subject: GMAPDQQVPATALGKSSRISLDGRRSERSVILADGSMHSLTLLHPGVYTLSSEVAETIRVLSGMAYYHAEGANDVQELHAGDSMVIPANQSYRLEVMEPLDYLLSS
soluble

Query: soluble on expression in E. coli; subject: QVQLLQPGAELVKPGASVKLSCKASGYTFTSYWMYWVKQRPGQGLEWIGEIDPSDSYTNYNQNFKGKATLTVDKSSSTAFMQLSSLTSQDSAVYFCARSPHYYGTTYNYPMDYWGQGTSVTVSSAKTTPPSVYPLAPGCGDTTGSSVTLGCLVKGYFPESVTVTWNSGSLSSSVHTFPALLQSGLYTMSSSVTVPSSTWPSQTVTCSVAHPASSTTVDKKLEP
soluble
